# experimental-system: T1, EsCas13d, nuclease-dead (Eubacterium siraeum, UniProt B0MS50, R295A;H300A;R849A;H854A)
# T1 sequence: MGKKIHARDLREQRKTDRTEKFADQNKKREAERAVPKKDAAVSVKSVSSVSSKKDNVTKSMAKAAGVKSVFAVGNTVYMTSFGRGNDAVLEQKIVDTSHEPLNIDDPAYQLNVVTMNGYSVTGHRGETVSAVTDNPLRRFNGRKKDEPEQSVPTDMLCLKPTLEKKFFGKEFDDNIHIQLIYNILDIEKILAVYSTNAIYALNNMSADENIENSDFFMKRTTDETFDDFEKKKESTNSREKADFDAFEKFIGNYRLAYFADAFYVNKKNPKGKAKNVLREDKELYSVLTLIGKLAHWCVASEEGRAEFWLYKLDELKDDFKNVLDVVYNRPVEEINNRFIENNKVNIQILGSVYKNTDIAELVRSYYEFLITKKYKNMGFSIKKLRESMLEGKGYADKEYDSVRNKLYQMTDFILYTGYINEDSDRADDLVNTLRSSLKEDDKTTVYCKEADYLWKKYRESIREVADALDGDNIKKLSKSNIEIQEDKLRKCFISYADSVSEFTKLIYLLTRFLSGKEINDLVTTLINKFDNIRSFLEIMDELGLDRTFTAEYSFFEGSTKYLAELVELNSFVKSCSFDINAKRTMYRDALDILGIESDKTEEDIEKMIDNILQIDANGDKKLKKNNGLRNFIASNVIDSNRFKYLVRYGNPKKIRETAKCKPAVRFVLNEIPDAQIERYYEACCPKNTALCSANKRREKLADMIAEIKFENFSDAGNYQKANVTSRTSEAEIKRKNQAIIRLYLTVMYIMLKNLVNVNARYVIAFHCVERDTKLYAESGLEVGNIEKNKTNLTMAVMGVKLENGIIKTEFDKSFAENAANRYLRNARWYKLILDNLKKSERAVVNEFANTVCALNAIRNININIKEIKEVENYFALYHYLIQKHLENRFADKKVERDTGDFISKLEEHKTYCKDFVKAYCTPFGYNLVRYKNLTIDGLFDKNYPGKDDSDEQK
# assay-explanation: crRNA (strand 1, pre-loaded); Mg2+; 40 mM Tris-HCl pH 7.5, 150 mM NaCl, 6 mM MgCl2, 1 mM DTT, 0.1% Tween-20, 0.2 mg/ml BSA; 25 C; 10 min per concentration, then washed
# measurement-setup: tags: His6-TwinStrep-SUMO cleaved; N-terminal SNAP kept (SNAP-Surface 488); label: 3' end held by stalled T7 RNA polymerase
value-kind: pKd
Please report pKd as the negative decimal logarithm of the molar concentration, giving only the number.

target 1 insA 3' of 19,insU 3' of 9 (mixed) RNA 1: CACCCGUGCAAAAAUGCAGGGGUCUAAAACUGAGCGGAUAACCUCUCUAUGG RNA 2: GGGAAUGGAUCCACAUCUACGAAUUCGUACCAUAAGAGAGGUUAUUCCGCUCACCGAGAUCGGAAGAGCACACGU | 7.49

Then there is this binder:
Can you look up the measured pKd of target 2 MT 5'PFS UAG 3'PFS CGC (mixed) RNA 1: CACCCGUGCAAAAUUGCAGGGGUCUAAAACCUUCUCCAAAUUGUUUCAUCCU RNA 2: GGGAAUGGAUCCACAUCUACGAAUUCUAGAGGAUGAAACAAUUUGGAGAAGCGCAGAUCGGAAGAGCACACGU for me?
8.63
